Metric: pIC50
pIC50 here: minus log base 10 of the concentration, concentration in moles per litre.

INPUT: What is its pIC50 for Cytochrome P450 2C9 (Homo sapiens)? Entry: "Cc1[nH]c2ccc(OC(F)(F)F)cc2c1Cc1cccc(O[C@@H](C)C(=O)O)c1"
OUTPUT: 7.30

###

# System tested: Peroxisome proliferator-activated receptor gamma (Homo sapiens)
# Sequence (P37231 whole entry): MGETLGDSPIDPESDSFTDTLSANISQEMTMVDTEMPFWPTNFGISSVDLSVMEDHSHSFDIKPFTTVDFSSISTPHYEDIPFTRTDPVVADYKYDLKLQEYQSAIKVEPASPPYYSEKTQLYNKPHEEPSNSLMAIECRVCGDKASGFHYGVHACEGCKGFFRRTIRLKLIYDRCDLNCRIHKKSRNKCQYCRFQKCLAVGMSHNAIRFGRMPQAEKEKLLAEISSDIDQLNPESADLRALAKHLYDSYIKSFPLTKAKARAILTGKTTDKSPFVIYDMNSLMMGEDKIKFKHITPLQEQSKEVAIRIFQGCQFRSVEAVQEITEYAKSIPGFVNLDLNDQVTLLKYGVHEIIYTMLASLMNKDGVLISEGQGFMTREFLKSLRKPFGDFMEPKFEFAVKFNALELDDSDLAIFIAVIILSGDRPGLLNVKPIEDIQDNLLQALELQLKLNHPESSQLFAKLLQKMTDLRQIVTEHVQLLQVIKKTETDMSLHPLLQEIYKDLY
# Run description: Inhibition of human peroxisome proliferator activated receptor gamma binding
Can you tell me log10 of IC50 for the items I'm about to list?
Use the decimal logarithm of IC50 (nM).

INPUT: What does the data say about its log10 of IC50? Entry: "Cc1c(Oc2cc(O[C@@H](C)C(=O)O)ccc2Cl)c2cc(OC(F)(F)F)ccc2n1-c1noc2cc(Cl)ccc12"
OUTPUT: 0.70

INPUT: What does the data say about its log10 of IC50? Entry: "COc1ccc2ncc(-n3c(C)c(Cc4cccc(O[C@@H](C)C(=O)O)c4)c4cc(OC(F)(F)F)ccc43)cc2c1"
OUTPUT: 1.46

INPUT: What does the data say about its log10 of IC50? Entry: "COc1ccc2c(-n3c(C)c(Cc4cc(O[C@H](C)C(=O)O)ccc4Cl)c4cc(OC(F)(F)F)ccc43)noc2c1"
OUTPUT: 0.30

INPUT: What does the data say about its log10 of IC50? Entry: "CCCc1c(Oc2c(C)n(-c3noc4cc(Cl)ccc34)c3ccc(OC(F)(F)F)cc23)cccc1O[C@@H](C)C(=O)O"
OUTPUT: 2.81

INPUT: What does the data say about its log10 of IC50? Entry: "Cc1c(Cc2cccc(O[C@@H](C)C(=O)O)c2)c2cc(OC(F)(F)F)ccc2n1-c1ccccn1"
OUTPUT: 2.67

INPUT: What does the data say about its log10 of IC50? Entry: "C#CCOc1cccc(Cc2c(C)n(C(=O)c3ccc(OC)cc3)c3ccc(OC(F)(F)F)cc23)c1"
OUTPUT: 1.79

###

Can you tell me pEC50 for the items I'm about to list?
# System tested: Peroxisome proliferator-activated receptor gamma (Homo sapiens)
# Sequence (P37231 whole entry): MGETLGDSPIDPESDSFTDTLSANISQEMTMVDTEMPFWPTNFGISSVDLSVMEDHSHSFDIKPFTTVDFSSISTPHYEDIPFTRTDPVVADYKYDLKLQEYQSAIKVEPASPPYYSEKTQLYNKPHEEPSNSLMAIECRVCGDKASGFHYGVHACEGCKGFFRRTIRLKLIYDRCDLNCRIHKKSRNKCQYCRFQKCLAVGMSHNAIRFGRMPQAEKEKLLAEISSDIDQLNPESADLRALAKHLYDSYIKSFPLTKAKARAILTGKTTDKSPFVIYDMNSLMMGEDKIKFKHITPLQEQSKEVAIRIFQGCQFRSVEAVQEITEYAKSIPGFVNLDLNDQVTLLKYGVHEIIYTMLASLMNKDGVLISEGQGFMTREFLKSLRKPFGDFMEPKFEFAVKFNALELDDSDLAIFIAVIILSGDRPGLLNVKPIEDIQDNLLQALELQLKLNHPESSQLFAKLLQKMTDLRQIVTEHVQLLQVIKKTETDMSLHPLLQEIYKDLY
pEC50 here: minus log base 10 of the concentration, concentration in moles per litre.

INPUT: What does the data say about its pEC50? Entry: "COc1ccc2c(-n3c(C)c(Cc4cc(O[C@H](C)C(=O)O)ccc4Cl)c4cc(OC(F)(F)F)ccc43)noc2c1"
OUTPUT: 8.52

INPUT: What does the data say about its pEC50? Entry: "C#CCOc1cccc(Cc2c(C)n(C(=O)c3ccc(OC)cc3)c3ccc(OC(F)(F)F)cc23)c1"
OUTPUT: 7.51

INPUT: What does the data say about its pEC50? Entry: "COc1ccc(C(=O)n2c(C)c(Cc3cccc(OCC#N)c3)c3cc(OC(F)(F)F)ccc32)cc1"
OUTPUT: 7.80

INPUT: What does the data say about its pEC50? Entry: "Cc1c(Oc2ccc(Cl)c(O[C@@H](C)C(=O)O)c2)c2cc(OC(F)(F)F)ccc2n1-c1noc2cc(Cl)ccc12"
OUTPUT: 8.52

INPUT: What does the data say about its pEC50? Entry: "Cc1c(Oc2cc(O[C@@H](C)C(=O)O)ccc2Cl)c2cc(OC(F)(F)F)ccc2n1-c1noc2cc(Cl)ccc12"
OUTPUT: 8.52

INPUT: What does the data say about its pEC50? Entry: "CCCc1ccc(Oc2c(C)n(-c3noc4cc(Cl)ccc34)c3ccc(OC(F)(F)F)cc23)cc1O[C@@H](C)C(=O)O"
OUTPUT: 7.41

INPUT: What does the data say about its pEC50? Entry: "COc1ccc(-n2c(C)c(Cc3cccc(O[C@@H](C)C(=O)O)c3)c3cc(OC(F)(F)F)ccc32)cc1"
OUTPUT: 8.52

INPUT: What does the data say about its pEC50? Entry: "Cc1c(Oc2cc(Cl)cc(O[C@@H](C)C(=O)O)c2)c2cc(OC(F)(F)F)ccc2n1-c1noc2cc(Cl)ccc12"
OUTPUT: 6.94

INPUT: What does the data say about its pEC50? Entry: "Cc1c(Oc2cccc(O[C@@H](C)C(=O)O)c2)c2cc(OC(F)(F)F)ccc2n1-c1noc2cc(Cl)ccc12"
OUTPUT: 6.71

INPUT: What does the data say about its pEC50? Entry: "COc1ccc2ncc(-n3c(C)c(Cc4cccc(O[C@@H](C)C(=O)O)c4)c4cc(OC(F)(F)F)ccc43)cc2c1"
OUTPUT: 7.31
